Item-by-item account of SOCE level (percentage of inhibition)
- System: SOCE (store operated calcium entry) in CHO cells
- Assay Remarks: Assay of SOCE (store operated calcium entry)-inhibiting action
- Assay type: cell-based, Chinese hamster
- Test Conditions: test compound 10 μmol; CHO cells, thapsigargin
Reported Property: SOCE level (percentage of inhibition)

{"Compound": "CC(C)(C)N(CCC(=O)c1ccc(C#N)cc1)Cc1ccccc1", "Reported Property": "SOCE level (percentage of inhibition)", "Result": "0%"}
{"Compound": "CC(C)N(CCO)CCC(=O)c1ccco1", "Reported Property": "SOCE level (percentage of inhibition)", "Result": "0%"}
{"Compound": "O=C(CCNCCSSCCNCCC(=O)c1ccco1)c1ccco1", "Reported Property": "SOCE level (percentage of inhibition)", "Result": "0%"}
{"Compound": "O=C(CCNCCCCNCCC(=O)c1ccc(Br)s1)c1ccc(Br)s1", "Reported Property": "SOCE level (percentage of inhibition)", "Result": "0%"}
{"Compound": "CC(C)N(CCC(=O)c1ccc(Cc2ccccc2)cc1)Cc1ccccc1 [Example 64]", "Reported Property": "SOCE level (percentage of inhibition)", "Result": "0%"}
{"Compound": "CC(C)N(CCO)CCCC(=O)c1ccccc1", "Reported Property": "SOCE level (percentage of inhibition)", "Result": "0%"}
{"Compound": "O=C(CCNCCSSCCNCCC(=O)c1ccc(Br)s1)c1ccc(Br)s1", "Reported Property": "SOCE level (percentage of inhibition)", "Result": "0%"}
{"Compound": "O=C(CCNCCO)c1ccc(Br)s1", "Reported Property": "SOCE level (percentage of inhibition)", "Result": "0%"}
{"Compound": "O=C(CCNCCSSCCNCCC(=O)c1cccs1)c1cccs1", "Reported Property": "SOCE level (percentage of inhibition)", "Result": "20%"}
{"Compound": "CC(C)(C)N(CCO)CCC(=O)c1ccc(Br)s1", "Reported Property": "SOCE level (percentage of inhibition)", "Result": "0%"}

###

- System: IICR (IP3 induced calcium release) in CHO cells
- Assay Remarks: Assay of IICR (IP3 induced calcium release)-inhibiting action
- Format: cell-based, Chinese hamster
- Test Conditions: Cricetulus griseus, CHO, test compound 10 μmol; CHO cells, 10 μM ATP; read-out: IICR level (percentage of inhibition)
Item-by-item account of inhibition at 10 µM

{"Entry Smiles": "CCCCN(CCO)CCC(=O)c1cnccn1", "inhibition at 10 µM": "0%"}
{"Entry Smiles": "CC(C)(C)N(CCO)CCC(=O)c1nccs1", "inhibition at 10 µM": "0%"}
{"Entry Smiles": "CC(C)N(CC(=O)c1ccccc1)Cc1ccccc1", "inhibition at 10 µM": "0%"}
{"Entry Smiles": "O=C(CCN(CCO)Cc1ccccc1)c1ccc[nH]1", "inhibition at 10 µM": "0%"}
{"Entry Smiles": "CN(CCC(=O)c1nccs1)Cc1ccccc1", "inhibition at 10 µM": "20%"}
{"Entry Smiles": "CC(C)N(CCO)CCC(=O)c1cccn1C", "inhibition at 10 µM": "0%"}
{"Entry Smiles": "CCCCN(CCC(=O)c1ccc(Br)cc1)Cc1ccccc1", "inhibition at 10 µM": "0%"}
{"Entry Smiles": "CC(C)N(CCC(=O)c1ccccc1)Cc1ccccc1", "inhibition at 10 µM": "20%"}
{"Entry Smiles": "O=C(CCN(CCO)CCO)c1ccncc1", "inhibition at 10 µM": "0%"}
{"Entry Smiles": "CC(C)N(CCO)CCC(=O)c1ccc(Cl)s1", "inhibition at 10 µM": "0%"}
{"Entry Smiles": "CN(CCC(=O)c1ccc(Cl)s1)Cc1ccccc1", "inhibition at 10 µM": "20%"}
{"Entry Smiles": "Cc1ccc(C(=O)CCN(CCO)C(C)C)o1", "inhibition at 10 µM": "50%"}
{"Entry Smiles": "O=C(CCN(CCO)CCO)c1ccccn1", "inhibition at 10 µM": "0%"}
{"Entry Smiles": "CC(C)N(CCC(=O)N1CCCCCC1=O)Cc1ccccc1", "inhibition at 10 µM": "0%"}
{"Entry Smiles": "CCCCN(CCC(=O)c1ccc(Cl)s1)Cc1ccccc1", "inhibition at 10 µM": "0%"}
{"Entry Smiles": "C=CCC(=O)c1ccc2ccccc2c1", "inhibition at 10 µM": "0%"}
{"Entry Smiles": "CCN(CCC(=O)c1ccco1)Cc1ccccc1", "inhibition at 10 µM": "40%"}
{"Entry Smiles": "O=C(CCN(CCO)Cc1ccccc1)c1cccnc1", "inhibition at 10 µM": "0%"}
{"Entry Smiles": "CC(C)N(CCC(=O)c1nccs1)Cc1ccccc1", "inhibition at 10 µM": "10%"}
{"Entry Smiles": "CC(C)N(CCO)CCC(=O)c1cc2ccccc2s1", "inhibition at 10 µM": "0%"}

###

Item-by-item account of inhibition at 100 µM
- Tested on: IICR (IP3 induced calcium release) in CHO cells
- Assay Remarks: Assay of IICR (IP3 induced calcium release)-inhibiting action
- Format: cell-based, Chinese hamster
- Test Conditions: Cricetulus griseus, CHO, test compound 100 μmol; CHO cells, 10 μM ATP; read-out: IICR level (percentage of inhibition)

{"Compound": "CCN(CCC(=O)c1ccc2c(c1)Cc1ccccc1-2)Cc1ccccc1 [Example 218]", "inhibition at 100 µM (%)": 70}
{"Compound": "Cc1csc(C(=O)CCN(C)Cc2ccccc2)n1 [Example 265]", "inhibition at 100 µM (%)": 70}
{"Compound": "CN(CCO)CCC(=O)c1cccs1 [Example 126]", "inhibition at 100 µM (%)": 70}
{"Compound": "CCN(CC)CCC(=O)c1ccc(Oc2ccccc2)cc1 [Example 116]", "inhibition at 100 µM (%)": 70}
{"Compound": "CCc1nccnc1C(=O)CCN(Cc1ccccc1)C(C)(C)C [Example 188]", "inhibition at 100 µM (%)": 100}
{"Compound": "O=C(CCN1CCCC1CO)c1cnccn1 (stereo not shown) [Example 282]", "inhibition at 100 µM (%)": 50}
{"Compound": "COC(=O)C(CSSCC(NCCC(=O)c1ccco1)C(=O)OC)NCCC(=O)c1ccco1 (stereo not shown) [Example 401, N,N-bis(2-furoylethyl)cystinemethylester]", "inhibition at 100 µM (%)": 57}
{"Compound": "CC(C)N(CCC(=O)c1ccc(Cc2ccccc2)cc1)Cc1ccccc1 [Example 64]", "inhibition at 100 µM (%)": 96}
{"Compound": "CCCCN(CCC(=O)c1ccc(Br)s1)Cc1ccccc1 [Example 373]", "inhibition at 100 µM (%)": 0}
{"Compound": "CC(C)(C)N(CCO)CCC(=O)c1ccncc1 [Example 30]", "inhibition at 100 µM (%)": 10}
{"Compound": "C=CC(=O)c1ccco1 [Example 171, 2-furyl vinylketone]", "inhibition at 100 µM (%)": 0}
{"Compound": "NCC(O)CNCCC(=O)c1ccc(Br)s1 (stereo not shown) [Example 343]", "inhibition at 100 µM (%)": 80}
{"Compound": "COc1ccc(C(=O)CCN(Cc2ccccc2)C(C)C)cc1 [Example 72]", "inhibition at 100 µM (%)": 70}

###

- Test system: IICR (IP3 induced calcium release) in CHO cells
- Assay Remarks: Assay of IICR (IP3 induced calcium release)-inhibiting action
- Format: cell-based, Chinese hamster
- Test Conditions: Cricetulus griseus, CHO, test compound 30 μmol; CHO cells, 10 μM ATP; read-out: IICR level (percentage of inhibition)

{"Compound": "CC(C)(C)N(CCO)CCC(=O)c1nccs1", "inhibition at 30 µM (%)": 0}
{"Compound": "CCN(CCC(=O)c1ccncc1)Cc1ccccc1", "inhibition at 30 µM (%)": 20}
{"Compound": "NCCCCNCCC(=O)c1ccc2ccccc2c1", "inhibition at 30 µM (%)": 0}
{"Compound": "CC(C)N(CCC(=O)c1ccncc1)C(C)C", "inhibition at 30 µM (%)": 0}
{"Compound": "Cc1ccsc1C(=O)CCN(Cc1ccccc1)C(C)(C)C", "inhibition at 30 µM (%)": 70}
{"Compound": "CCC(CO)(CO)NCCC(=O)c1ccc(Br)s1", "inhibition at 30 µM (%)": 0}
{"Compound": "CCCCN(CCC(=O)c1ccco1)Cc1ccccc1", "inhibition at 30 µM (%)": 20}
{"Compound": "CC(CN(CCO)C(C)C)C(=O)c1ccc(F)cc1 (stereo not shown)", "inhibition at 30 µM (%)": 0}
{"Compound": "O=C(CCN(CCO)c1ccccc1)c1ccc(-c2ccccc2)cc1", "inhibition at 30 µM (%)": 30}
{"Compound": "CC(C)(C)N(CCC(=O)c1ccncc1)Cc1ccccc1", "inhibition at 30 µM (%)": 20}
{"Compound": "O=C(CCN(CCO)CCO)c1ccc(I)s1", "inhibition at 30 µM (%)": 0}
{"Compound": "CC(C)N(CCCC(=O)c1ccccc1)Cc1ccccc1", "inhibition at 30 µM (%)": 0}
{"Compound": "CC(C)N(CCO)CC(=O)c1ccccc1", "inhibition at 30 µM (%)": 0}
{"Compound": "CN(CCO)CCC(=O)c1ccc(Br)s1", "inhibition at 30 µM (%)": 10}
{"Compound": "CCN(CO)CCC(=O)c1ccc(Br)s1", "inhibition at 30 µM (%)": 0}
{"Compound": "CCCCN(CCC(=O)c1ccc2ccccc2c1)Cc1ccccc1", "inhibition at 30 µM (%)": 24}
{"Compound": "Cn1cccc1C(=O)CCN(Cc1ccccc1)C(C)(C)C", "inhibition at 30 µM (%)": 0}
{"Compound": "COc1ccc(C(=O)CCN(CCO)CCO)cc1", "inhibition at 30 µM (%)": 30}
{"Compound": "O=C(CCN(CCO)CCO)c1ccc2ccccc2c1", "inhibition at 30 µM (%)": 60}
{"Compound": "CC(C)(C)N(CCC(=O)c1sccc1Br)Cc1ccccc1", "inhibition at 30 µM (%)": 83}
{"Compound": "O=C(CCNCCCCNCCC(=O)c1cnccn1)c1cnccn1", "inhibition at 30 µM (%)": 0}
{"Compound": "COC(=O)C(CSSCC(NCCC(=O)c1nccs1)C(=O)OC)NCCC(=O)c1nccs1 (stereo not shown)", "inhibition at 30 µM (%)": 0}
{"Compound": "CCCCN(CCO)CCC(=O)c1cccs1", "inhibition at 30 µM (%)": 0}
{"Compound": "CC(C)N(CCC(=O)c1cccs1)Cc1ccccc1", "inhibition at 30 µM (%)": 0}
{"Compound": "Cc1nc(C)c(C(=O)CCN(CCO)C(C)C)s1", "inhibition at 30 µM (%)": 0}
{"Compound": "Cc1ccc(C(=O)CCN(Cc2ccccc2)C(C)C)o1", "inhibition at 30 µM (%)": 60}
{"Compound": "Cc1csc(C(=O)CCN(C)Cc2ccccc2)n1", "inhibition at 30 µM (%)": 0}
{"Compound": "Cc1ccc(C(=O)CCN(Cc2ccccc2)Cc2ccccc2)o1", "inhibition at 30 µM (%)": 0}
{"Compound": "CCCCN(CCO)CCC(=O)c1ccccn1", "inhibition at 30 µM (%)": 10}
{"Compound": "O=C(CCNc1ccccc1S)c1cccs1", "inhibition at 30 µM (%)": 30}
{"Compound": "CC(C)N(CCC(=O)c1cnccn1)Cc1ccccc1", "inhibition at 30 µM (%)": 50}
{"Compound": "NCCN(CCO)CCC(=O)c1ccc(Br)s1", "inhibition at 30 µM (%)": 0}
{"Compound": "N[C@@H](CSSC[C@@H](C(=O)O)N(CCC(=O)c1ccc(Cl)s1)CCC(=O)c1ccc(Cl)s1)C(=O)O", "inhibition at 30 µM (%)": 0}
{"Compound": "CC(C)N(CCC(=O)c1ccccn1)Cc1ccccc1", "inhibition at 30 µM (%)": 100}
